Listed here are compounds together with their documented Fold activation.
- TARGET_ENTITY: Peroxisome proliferator-activated receptor alpha (Homo sapiens) (UniProt Q07869)
- Sequence (Q07869 whole entry): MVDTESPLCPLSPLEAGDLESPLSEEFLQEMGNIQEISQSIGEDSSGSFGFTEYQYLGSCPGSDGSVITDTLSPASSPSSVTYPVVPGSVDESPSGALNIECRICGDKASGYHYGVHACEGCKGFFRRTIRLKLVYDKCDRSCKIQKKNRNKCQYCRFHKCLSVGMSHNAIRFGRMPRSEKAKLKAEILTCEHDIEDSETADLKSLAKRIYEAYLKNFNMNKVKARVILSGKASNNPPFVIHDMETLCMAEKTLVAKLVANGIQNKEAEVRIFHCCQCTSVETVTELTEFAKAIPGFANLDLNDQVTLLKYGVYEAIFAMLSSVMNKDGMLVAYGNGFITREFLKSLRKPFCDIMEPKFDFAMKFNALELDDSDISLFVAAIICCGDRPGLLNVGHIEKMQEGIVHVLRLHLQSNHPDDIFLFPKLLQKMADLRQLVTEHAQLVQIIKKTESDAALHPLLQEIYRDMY
- TEST_DETAILS: In vitro transactivation of human Peroxisome proliferator activated receptor alpha (hPPARalpha)
- Parameters: concentration or dose not given beside the values
Field: value (include unit after the number)

Below, each entry is followed by its recorded Fold activation result.
COMPOUND	MEASUREMENT
CCO[C@@H](Cc1ccc(OC/C=C/C#Cc2cccc(C#C/C=C/COc3ccc(C[C@H](OCC)C(=O)O)cc3)c2)cc1)C(=O)O	193%
CCO[C@@H](Cc1ccc(OC/C=C/C#Cc2ccccc2)cc1)C(=O)O	123%
CCO[C@@H](Cc1ccc(OC/C=C(\C)c2ccc(-c3ccc(/C(C)=C/COc4ccc(C[C@H](OCC)C(=O)O)cc4)cc3)cc2)cc1)C(=O)O	247%
CCO[C@@H](Cc1ccc(OC/C=C(\C)c2ccc(-c3ccccc3)cc2)cc1)C(=O)O	158%
CCCCC[C@H](O)/C=C/[C@@H]1[C@H]2C/C(=C\CCCC(=O)O)C[C@H]2C[C@H]1O [CARBACYCLIN]	79%

Find the measured Fold activation of CC(C)(Oc1ccc(C(=O)c2ccc(Cl)cc2)cc1)C(=O)O [FENOFIBRIC ACID] and report it.
265%

Report Fold activation, nothing else, for this compound: `CCO[C@@H](Cc1ccc(OC/C=C/C#Cc2ccc(C#C/C=C/COc3ccc(C[C@H](OCC)C(=O)O)cc3)cc2)cc1)C(=O)O`
173%
